# measurementTarget: CYP2C9 (Homo sapiens, UniProt P11712)
# Sequence (P11712 whole entry): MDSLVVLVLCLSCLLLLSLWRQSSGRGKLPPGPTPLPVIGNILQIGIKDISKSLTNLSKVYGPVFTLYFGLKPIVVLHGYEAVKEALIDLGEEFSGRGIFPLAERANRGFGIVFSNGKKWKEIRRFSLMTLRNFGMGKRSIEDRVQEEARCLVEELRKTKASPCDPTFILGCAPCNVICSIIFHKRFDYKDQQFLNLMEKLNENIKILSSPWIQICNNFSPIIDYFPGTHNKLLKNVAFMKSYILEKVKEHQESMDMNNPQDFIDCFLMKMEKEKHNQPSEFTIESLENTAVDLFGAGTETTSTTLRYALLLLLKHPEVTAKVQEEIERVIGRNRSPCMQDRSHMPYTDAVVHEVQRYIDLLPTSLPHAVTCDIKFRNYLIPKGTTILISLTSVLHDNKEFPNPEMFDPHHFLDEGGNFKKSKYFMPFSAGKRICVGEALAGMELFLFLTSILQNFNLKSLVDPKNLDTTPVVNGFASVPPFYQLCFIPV
pIC50: −log10 of the molar value.
measuredQuantity: pIC50

Problem: Which measured pIC50 belongs to `NC(=O)NCCSc1nonc1/C(=N/O)Nc1ccc(F)c(Br)c1` , tested on CYP2C9 (Homo sapiens, UniProt P11712)?
Solution: < 4.30

---

Quick list: solubility thermodynamic at 24 h per entry.
# assayText: Measurement of thermodynamic solubility
# Type: physicochemical
# appliedConditions: aqueous buffer, thermodynamic from solid; 50 mM phosphate buffer pH 2.0, 24 hours, room temperature; read-out: thermodynamic solubility (pH: 2.0)
Number in µM, nothing else.

NC(=O)NCCSc1nonc1/C(=N/O)Nc1ccc(F)c(Br)c1 : 155

Problem: What value of solubility thermodynamic at 24 h has been reported for the following molecule? `NS(=O)(=O)NCCSc1nonc1/C(=N/O)Nc1ccc(F)c(Br)c1`
Solution: 2620

Problem: What value of solubility thermodynamic at 24 h has been reported for the following molecule? NS(=O)(=O)NCCNc1nonc1C(=NO)Nc1ccc(F)c(Br)c1 [Compound 360, INCB024360, reference compound]
Solution: 65

Problem: What value of solubility thermodynamic at 24 h has been reported for the following molecule? `NS(=O)(=O)NCCOc1nonc1/C(=N/O)Nc1ccc(F)c(Br)c1`
Solution: 138

---

# measurementTarget: CYP3A4 (Homo sapiens)
# Sequence (P08684 whole entry): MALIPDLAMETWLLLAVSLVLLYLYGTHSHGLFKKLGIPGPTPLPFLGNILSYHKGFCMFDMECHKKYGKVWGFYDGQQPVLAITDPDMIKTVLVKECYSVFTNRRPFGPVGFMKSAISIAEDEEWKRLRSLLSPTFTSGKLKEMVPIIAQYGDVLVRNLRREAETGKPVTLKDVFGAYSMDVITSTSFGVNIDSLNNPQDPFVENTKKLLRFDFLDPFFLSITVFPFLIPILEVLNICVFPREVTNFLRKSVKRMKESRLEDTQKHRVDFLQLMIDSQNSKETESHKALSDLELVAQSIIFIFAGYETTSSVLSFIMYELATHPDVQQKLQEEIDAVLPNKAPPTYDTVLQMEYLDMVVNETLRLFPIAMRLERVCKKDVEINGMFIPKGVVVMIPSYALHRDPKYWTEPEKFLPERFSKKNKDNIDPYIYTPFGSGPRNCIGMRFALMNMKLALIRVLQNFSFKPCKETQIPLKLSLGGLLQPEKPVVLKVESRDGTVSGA
measuredQuantity: pIC50
Scale explanation: pIC50 corresponds to minus log10 of a concentration expressed in moles per litre.

Problem: Which measured pIC50 belongs to `CC(=O)NCCSc1nonc1/C(=N/O)Nc1ccc(F)c(Br)c1` , tested on CYP3A4 (Homo sapiens)?
Solution: 4.41

---

# measurementTarget: recombinant human IDO1 enzyme (Homo sapiens)
# assayText: Test of hIDO1 for enzymatic activity in vitro (NFK Green fluorescence)
Quick list: IC50 per entry.
Number in nM, nothing else.

CSc1nonc1/C(=N/O)Nc1ccc(F)c(Br)c1 [Compound 0068] : 113
NS(=O)(=O)NCCOc1nonc1/C(=N/O)Nc1ccc(F)c(Cl)c1 [Compound 0190] : 945
NC(=O)NCCSc1nonc1/C(=N/O)Nc1ccc(F)c(Br)c1 [Compound 0231] : 42.2
CCN(CC)C(=O)COc1nonc1/C(=N/O)Nc1ccc(F)c(Br)c1 [Compound 0183] : 1120

Problem: What value of IC50 has been reported for the following molecule? CN(C)CCN(C)CCOc1nonc1/C(=N/O)Nc1ccc(F)c(Br)c1 [Compound 0182]
Solution: 673

---

# measurementTarget: CYP2D6 (Homo sapiens)
# Sequence (P10635 whole entry): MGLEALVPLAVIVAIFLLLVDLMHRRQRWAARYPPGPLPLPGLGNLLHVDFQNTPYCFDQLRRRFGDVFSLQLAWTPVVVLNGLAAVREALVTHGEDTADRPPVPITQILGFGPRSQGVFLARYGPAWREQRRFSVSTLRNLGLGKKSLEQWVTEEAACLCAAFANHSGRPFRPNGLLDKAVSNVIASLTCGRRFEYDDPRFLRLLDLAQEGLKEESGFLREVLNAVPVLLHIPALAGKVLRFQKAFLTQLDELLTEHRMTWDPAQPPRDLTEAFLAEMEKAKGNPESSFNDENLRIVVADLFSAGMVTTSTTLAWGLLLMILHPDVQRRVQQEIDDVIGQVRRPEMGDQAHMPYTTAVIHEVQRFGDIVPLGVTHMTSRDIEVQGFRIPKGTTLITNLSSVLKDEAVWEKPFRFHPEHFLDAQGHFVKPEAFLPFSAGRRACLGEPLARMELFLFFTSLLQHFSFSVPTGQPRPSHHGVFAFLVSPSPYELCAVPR
measuredQuantity: IC50 (µM)
Number in µM, nothing else.

Problem: What value of IC50 has been reported for the following compound? `CC(=O)NCCSc1nonc1/C(=N/O)Nc1ccc(F)c(Br)c1`
Solution: 26.1

---

# assayText: Test for permeability across Caco2
# Format: in vitro ADME
# appliedConditions: human, Caco-2
# Protocol: 2. Test for Permeability Across Caco2 A sample for test was dissolved in dimethyl sulfoxide (DMSO) or other suitable solvents, to be prepared into 10 mM stock solution. A suitable internal standard […] The sample for test, the fenoterol control, propranolol control, and digoxin were analyzed in a semiquantitative manner, and specific values of analytes to a peak area of the internal standard were taken as concentration of the controls.
measuredQuantity: Papp A→B at 120 min, 2 µM (×10⁻⁶ cm/s)
Number in ×10⁻⁶ cm/s, nothing else.

Problem: What value of Papp A→B at 120 min, 2 µM has been reported for the following compound? `NS(=O)(=O)NCCSc1nonc1/C(=N/O)Nc1ccc(F)c(Br)c1`
Solution: 2.97

Problem: What value of Papp A→B at 120 min, 2 µM has been reported for the following compound? NS(=O)(=O)NCCNc1nonc1C(=NO)Nc1ccc(F)c(Br)c1 [Compound 360, INCB024360, reference compound]
Solution: 0.39

Problem: What value of Papp A→B at 120 min, 2 µM has been reported for the following compound? `NC(=O)NCCSc1nonc1/C(=N/O)Nc1ccc(F)c(Br)c1`
Solution: 2.58

---

# measurementTarget: recombinant human IDO1 enzyme (Homo sapiens, UniProt P14902)
# Construct: purchased NTRC (Netherlands Translational Research Center) NTRC-hIDO-10K
# Sequence (P14902 whole entry): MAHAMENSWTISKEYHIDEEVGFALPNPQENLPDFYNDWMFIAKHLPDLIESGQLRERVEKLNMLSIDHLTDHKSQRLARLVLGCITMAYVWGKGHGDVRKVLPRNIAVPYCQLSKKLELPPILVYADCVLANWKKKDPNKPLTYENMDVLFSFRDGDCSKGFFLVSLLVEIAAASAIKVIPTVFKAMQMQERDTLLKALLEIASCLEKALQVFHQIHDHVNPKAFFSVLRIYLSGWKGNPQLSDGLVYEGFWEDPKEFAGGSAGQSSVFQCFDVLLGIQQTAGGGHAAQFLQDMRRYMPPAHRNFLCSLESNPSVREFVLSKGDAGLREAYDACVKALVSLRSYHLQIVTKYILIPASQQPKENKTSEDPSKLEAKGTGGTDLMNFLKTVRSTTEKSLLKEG
# assayText: Test of hIDO1 for enzymatic activity in vitro (NFK Green fluorescence)
# Format: biochemical
Quick list: log10 IC50 per entry.
log10 IC50, nM

Problem: What value of log10 IC50 has been reported for the following compound? CN(CCOc1nonc1/C(=N/O)Nc1ccc(F)c(Br)c1)Cc1ccccc1 [Compound 0133]
Solution: 3.01

Problem: What value of log10 IC50 has been reported for the following compound? CNC(=O)NCCSc1nonc1/C(=N/O)Nc1ccc(F)c(Br)c1 [Compound 0233]
Solution: 2.04

Problem: What value of log10 IC50 has been reported for the following compound? O/N=C(\Nc1ccc(F)c(Br)c1)c1nonc1SCc1ccccc1Cl [Compound 0134]
Solution: 3.85

Problem: What value of log10 IC50 has been reported for the following compound? O/N=C(\Nc1ccc(F)c(Br)c1)c1nonc1OC1CCOC1 (stereo not drawn) [Compound 0124]
Solution: 3.01

Problem: What value of log10 IC50 has been reported for the following compound? NS(=O)(=O)NCCSc1nonc1/C(=N/O)Nc1ccc(F)c(C(F)(F)F)c1 [Compound 0157]
Solution: 2.20

Problem: What value of log10 IC50 has been reported for the following compound? O=S(=O)(O)NCCOc1nonc1/C(=N/O)Nc1ccc(F)c(Br)c1 [Compound 0148]
Solution: 2.17

Problem: What value of log10 IC50 has been reported for the following compound? NS(=O)(=O)NCCOc1nonc1/C(=N/O)Nc1ccc(F)c(C2CC2)c1 [Compound 0122]
Solution: 2.75

Problem: What value of log10 IC50 has been reported for the following compound? C=CCSc1nonc1/C(=N/O)Nc1ccc(F)c(Br)c1 [Compound 0138]
Solution: 2.56

Problem: What value of log10 IC50 has been reported for the following compound? CNC(=O)COc1nonc1/C(=N/O)Nc1ccc(F)c(Br)c1 [Compound 0139]
Solution: 2.42

Problem: What value of log10 IC50 has been reported for the following compound? O=C(CSc1nonc1/C(=N/O)Nc1ccc(F)c(Br)c1)NCC(F)F [Compound 0302]
Solution: 1.94

Problem: What value of log10 IC50 has been reported for the following compound? N=C(N)NC(=N)NCCSc1nonc1/C(=N/O)Nc1ccc(F)c(Br)c1 [Compound 0384]
Solution: 2.24

Problem: What value of log10 IC50 has been reported for the following compound? NS(=O)(=O)NC1(COc2nonc2/C(=N/O)Nc2ccc(F)c(Br)c2)CC1 [Compound 0070]
Solution: 3.14

Problem: What value of log10 IC50 has been reported for the following compound? CS(=O)(=O)NCCOc1nonc1/C(=N/O)Nc1ccc(F)c(Br)c1 [Compound 0106]
Solution: 2.03

Problem: What value of log10 IC50 has been reported for the following compound? COCCCCOc1nonc1/C(=N/O)Nc1ccc(F)c(Br)c1 [Compound 0128]
Solution: 2.78

Problem: What value of log10 IC50 has been reported for the following compound? NC(=O)CSc1nonc1/C(=N/O)Nc1ccc(F)c(Br)c1 [Compound 0251]
Solution: 1.65

Problem: What value of log10 IC50 has been reported for the following compound? O/N=C(\Nc1ccc(F)c(Br)c1)c1nonc1SC1CCCCC1 [Compound 0137]
Solution: 3.76

---

# measurementTarget: recombinant human IDO1 enzyme (Homo sapiens, UniProt P14902)
# Construct: purchased NTRC (Netherlands Translational Research Center) NTRC-hIDO-10K
# assayText: Test of hIDO1 for enzymatic activity in vitro (NFK Green fluorescence)
# Format: biochemical
pIC50: −log10 of the molar value.
# cutoff 6 applies to pIC50; >= gives YES, < gives NO

Check out these entries, answers already filled in.
NS(=O)(=O)NCCOc1nonc1/C(=N/O)Nc1ccc(F)c(Br)c1 : YES
O/N=C(\Nc1ccc(F)c(Br)c1)c1nonc1O : NO
OCCOc1nonc1/C(=N/O)Nc1ccc(F)c(Br)c1 : YES
COc1c(F)cc(N/C(=N\O)c2nonc2OCCNS(N)(=O)=O)cc1F : NO

Problem: Item `N=C(N)NCCSc1nonc1/C(=N/O)Nc1ccc(F)c(Br)c1` with pIC50 of 6 or above?
Solution: YES

Problem: Item `O=C(NCCOc1nonc1/C(=N/O)Nc1ccc(F)c(Br)c1)c1ccccc1` with pIC50 of 6 or above?
Solution: YES

Problem: Item `O=C(NCCSc1nonc1/C(=N/O)Nc1ccc(F)c(Br)c1)C1CC1` with pIC50 of 6 or above?
Solution: YES

---

# measurementTarget: IDO1 enzyme in Hela cells (Homo sapiens, UniProt P14902)
# Construct: endogenous in cells
# Sequence (P14902 whole entry): as the sequence (P14902 whole entry) above
# assayText: Test of hIDO1 for cytological activity (Hela cell kynurenine by LCMS, interferon-γ induced)
# appliedConditions: interferon-γ 100 ng/ml, 20 hours
measuredQuantity: pIC50
Scale explanation: pIC50 corresponds to minus log10 of a concentration expressed in moles per litre.

N#CCC(=O)NCCSc1nonc1/C(=N/O)Nc1ccc(F)c(Br)c1 [Compound 0249] : 7.52

Problem: What value of pIC50 has been reported for the following molecule? COC(=O)NCCSc1nonc1/C(=N/O)Nc1ccc(F)c(Br)c1 [Compound 0250]
Solution: 7.57

Problem: What value of pIC50 has been reported for the following molecule? O=S(=O)(O)NCCOc1nonc1/C(=N/O)Nc1ccc(F)c(Br)c1 [Compound 0148]
Solution: 6.80

Problem: What value of pIC50 has been reported for the following molecule? NS(=O)(=O)NCCOc1nonc1/C(=N/O)Nc1ccc(F)c(Br)c1 [Compound 0015]
Solution: 7.85

Problem: What value of pIC50 has been reported for the following molecule? O=CNCCOc1nonc1/C(=N/O)Nc1ccc(F)c(Br)c1 [Compound 0153]
Solution: 7.08
